system: Purified calpain (CANP) sampled from a rat brain (Rattus norvegicus)
Sequence (Q07009 1-700): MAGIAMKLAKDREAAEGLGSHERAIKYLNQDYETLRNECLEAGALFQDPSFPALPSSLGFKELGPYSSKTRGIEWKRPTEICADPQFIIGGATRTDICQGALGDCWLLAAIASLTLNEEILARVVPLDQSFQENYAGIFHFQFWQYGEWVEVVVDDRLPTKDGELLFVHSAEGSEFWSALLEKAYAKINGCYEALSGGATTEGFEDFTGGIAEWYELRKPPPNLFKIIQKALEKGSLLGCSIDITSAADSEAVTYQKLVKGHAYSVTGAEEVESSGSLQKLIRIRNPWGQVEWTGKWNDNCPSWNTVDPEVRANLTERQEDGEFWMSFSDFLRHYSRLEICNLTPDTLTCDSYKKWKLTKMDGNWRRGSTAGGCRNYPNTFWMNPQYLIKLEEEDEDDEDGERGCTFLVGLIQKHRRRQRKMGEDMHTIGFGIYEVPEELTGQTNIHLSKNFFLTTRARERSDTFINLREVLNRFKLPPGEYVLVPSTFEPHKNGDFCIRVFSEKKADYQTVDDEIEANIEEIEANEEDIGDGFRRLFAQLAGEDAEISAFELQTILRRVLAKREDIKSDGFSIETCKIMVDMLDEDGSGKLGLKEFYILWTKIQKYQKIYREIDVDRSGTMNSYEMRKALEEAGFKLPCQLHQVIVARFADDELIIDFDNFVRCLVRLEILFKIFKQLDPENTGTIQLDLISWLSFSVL
Sequence (Q64537 1-270 partner): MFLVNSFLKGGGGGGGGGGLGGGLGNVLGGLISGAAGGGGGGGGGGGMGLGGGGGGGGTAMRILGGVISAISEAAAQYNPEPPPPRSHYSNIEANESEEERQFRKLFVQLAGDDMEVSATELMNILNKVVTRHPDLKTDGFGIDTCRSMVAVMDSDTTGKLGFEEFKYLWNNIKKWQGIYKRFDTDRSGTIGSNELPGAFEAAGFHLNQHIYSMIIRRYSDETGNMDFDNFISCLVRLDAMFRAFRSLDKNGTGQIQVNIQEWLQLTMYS
measurement_kind: IC50 (µM)

I = CCOC(=O)[C@H]1OS(=O)(=O)O[C@@H]1C(=O)N[C@@H](CC(C)C)C(=O)NCCC(C)C
II = CC(C)CC(NC(=O)C1OC1C(=O)O)C(=O)NCCCCNC(=N)N (centres unmarked) [Example E-64, E-64, reference compound]
Form field 'greater IC50' accepts I or II ; which applies? Select an item and report its label. I
